Tested on: NCI-H460 lung
assay.overview: NCI-60 one-dose screen, 48 h
assay.context: 10 µM unless noted
This is part of a sample that, as a whole, favours compounds with a hit. Of some 83,000 tested, about 20% had one in any assay. Calls of active or inactive are those of the source. The calls were made as follows: active = growth percent below 10; inactive = the rest.
Outcome codes: T (active), F (inactive)

molecule	qualitative.label
CCCCCCCCCCCCNC(=S)N/N=C/c1ccccc1O	F
CC1(C)CC[C@]2(C(=O)O)CC[C@]3(C)[C@H](CC[C@@H]4[C@@]5(C)CCC(=O)C(C)(C)[C@@H]5CC[C@]43C)[C@H]2[C@H]1OC(=O)C(F)(F)F	T
COc1cc2c(cc1OCCCN1CCN(CCCOc3cc4c(cc3OC)C(=O)N3C[C@H](F)C[C@H]3C=N4)CC1)N=C[C@@H]1C[C@@H](F)CN1C2=O	T
N#Cc1c(Cl)nc(SCC2CO2)nc1-c1ccccc1 (stereo not drawn)	F
COc1cc(OC)c(/C=C/C(=O)c2c(N)cc(OC)cc2OC)c(OC)c1	T
Cc1cccc(C[C@H](NC(=O)Nc2ccc(Cl)cc2F)C(=O)N[C@@H]2C(=O)N3C[C@H](O)C[C@H]3C(=O)N3CCN(C)C[C@H]3C(=O)N[C@@H](C)C(=O)N3C[C@H](C)C[C@H]3C(=O)O[C@H]2C)c1	F
Cc1ccc(NC(=S)/N=c2/n(-c3ccccc3)nc3n2CCN3C2=NCCN2)cc1	F
CC1(C)OC2[C@@H](CNC(=O)NC(=O)NC(=O)CI)O[C@@H](n3cnc4c(NC(=O)Nc5ccccc5)ncnc43)[C@H]2O1 (stereo partly drawn)	F
